Test: Therapeutic index, IC50 for H9/EC50 for HIV 3B
Assay type: cell-based
Conditions: human, H9 cells; read-out: Ratio IC50/EC50
selectivity ratio: recorded values

Please review the following examples before continuing.
C=C(C)[C@@H]1CC[C@]2(C)CC[C@]3(C)[C@H](CC[C@@H]4[C@@]5(C)CC[C@H](OC(=O)CC(C)(C)C(=O)O)C(C)(C)[C@@H]5CC[C@]43C)[C@@H]12 : > 17.2
CC1(C)CC[C@]2(C(=O)O)CC[C@]3(C)C(=CC[C@@H]4[C@@]5(C)CC[C@H](OC(=O)CC(C)(C)C(=O)O)C(C)(C)[C@@H]5CC[C@]43C)[C@@H]2C1 : > 133
C[C@H]1[C@H](C)CC[C@]2(C(=O)O)CC[C@]3(C)C(=CC[C@@H]4[C@@]5(C)CC[C@H](OC(=O)CC(C)(C)CC(=O)O)C(C)(C)[C@@H]5CC[C@]43C)[C@H]12 : 42

Now for another entry.
The compound listed as `CC(C)C[C@@H](CO)NC(=O)[C@]12CCC(C)(C)C=C1[C@H]1CC[C@@H]3[C@@]4(C)CC[C@H](OC(=O)CC(C)(C)C(=O)O)C(C)(C)[C@@H]4CC[C@@]3(C)[C@]1(C)CC2` has a reported selectivity ratio of > 2500

---

Assay: Therapeutic index, IC50 for H9/EC50 for HIV 3B
Format: cell-based
Details: human, H9 cells; read-out: Ratio IC50/EC50
Endpoint Name: selectivity ratio
Reply: number alone, nothing else.

CC1(C)C=C2[C@H]3CC[C@@H]4[C@@]5(C)CC[C@H](OC(=O)CC(C)(C)C(=O)O)C(C)(C)[C@@H]5CC[C@@]4(C)[C@]3(C)CC[C@@]2(C(=O)NCCCCCCCCCCC(=O)O)CC1 : 3400

The compound listed as `C[C@H]1[C@H](C)CC[C@]2(C(=O)O)CC[C@]3(C)C(=CC[C@@H]4[C@@]5(C)CC[C@H](OC(=O)CC(C)(C)C(=O)O)C(C)(C)[C@@H]5CC[C@]43C)[C@H]12` has a reported selectivity ratio of 360

---

Test: Therapeutic index, IC50 for MT-4/EC50 for HIV1 NL4-3
Details: human, MT-4 cells
selectivity ratio: recorded values
Reply: number alone, nothing else.

C=C(C)[C@@H]1CC[C@]2(C(=O)NCCCCCCCCCCC(=O)O)CC[C@]3(C)[C@H](CC[C@@H]4[C@@]5(C)CC[C@H](OC(=O)CC(C)(C)C(=O)O)C(C)(C)[C@@H]5CC[C@]43C)[C@@H]12 : 1570
C[C@H]1[C@H](C)CC[C@]2(C(=O)O)CC[C@]3(C)C(=CC[C@@H]4[C@@]5(C)CC[C@H](OC(=O)CC(C)(C)C(=O)O)C(C)(C)[C@@H]5CC[C@]43C)[C@H]12 : 2.5

Now for another entry.
The compound listed as `CC1(C)C=C2[C@H]3CC[C@@H]4[C@@]5(C)CC[C@H](OC(=O)CC(C)(C)C(=O)O)C(C)(C)[C@@H]5CC[C@@]4(C)[C@]3(C)CC[C@@]2(C(=O)NCCCCCCCCCCC(=O)O)CC1` has a reported selectivity ratio of 177

---

Tested on: MT4
Experiment: Antiviral activity against HIV1 PI-R replication in human MT4 cells
Format: functional, cell-based
Endpoint Name: EC50 (nM)
Reply numerically in nM, unit not repeated.

CC(C)C[C@H](NC(=O)[C@]12CCC(C)(C)C=C1[C@H]1CC[C@@H]3[C@@]4(C)CC[C@H](OC(=O)CC(C)(C)C(=O)O)C(C)(C)[C@@H]4CC[C@@]3(C)[C@]1(C)CC2)C(=O)O : 21
C=C(C)[C@@H]1CC[C@]2(C(=O)N[C@@H](CC(C)C)C(=O)O)CC[C@]3(C)[C@H](CC[C@@H]4[C@@]5(C)CC[C@H](OC(=O)CC(C)(C)C(=O)O)C(C)(C)[C@@H]5CC[C@]43C)[C@@H]12 : 6

The compound listed as `CC(C)C[C@@H](CO)NC(=O)[C@]12CCC(C)(C)C=C1[C@H]1CC[C@@H]3[C@@]4(C)CC[C@H](OC(=O)CC(C)(C)C(=O)O)C(C)(C)[C@@H]4CC[C@@]3(C)[C@]1(C)CC2` has a reported EC50 of 88

The compound listed as `Cc1cn([C@H]2C[C@H](N=[N+]=[N-])[C@@H](CO)O2)c(=O)[nH]c1=O` has a reported EC50 of 19

The compound listed as `C=C(C)[C@@H]1CC[C@]2(C(=O)O)CC[C@]3(C)[C@H](CC[C@@H]4[C@@]5(C)CC[C@H](OC(=O)CC(C)(C)C(=O)O)C(C)(C)[C@@H]5CC[C@]43C)[C@@H]12` has a reported EC50 of 430

---

Assay: Therapeutic index, IC50 for MT-4/EC50 for HIV1 NL4-3
Conditions: human, MT-4 cells
selectivity ratio: recorded values

Please review the following examples before continuing.
CC1(C)CC[C@]2(C(=O)O)CC[C@]3(C)C(=CC[C@@H]4[C@@]5(C)CC[C@H](OC(=O)CC(C)(C)C(=O)O)C(C)(C)[C@@H]5CC[C@]43C)[C@@H]2C1 : 2.4
CC(C)C[C@@H](CO)NC(=O)[C@]12CCC(C)(C)C=C1[C@H]1CC[C@@H]3[C@@]4(C)CC[C@H](OC(=O)CC(C)(C)C(=O)O)C(C)(C)[C@@H]4CC[C@@]3(C)[C@]1(C)CC2 : 522
CC(C)C[C@H](NC(=O)[C@]12CCC(C)(C)C=C1[C@H]1CC[C@@H]3[C@@]4(C)CC[C@H](OC(=O)CC(C)(C)C(=O)O)C(C)(C)[C@@H]4CC[C@@]3(C)[C@]1(C)CC2)C(=O)O : 2650
C=C(C)[C@@H]1CC[C@]2(C)CC[C@]3(C)[C@H](CC[C@@H]4[C@@]5(C)CC[C@H](OC(=O)CC(C)(C)C(=O)O)C(C)(C)[C@@H]5CC[C@]43C)[C@@H]12 : > 1.7

Now for another entry.
The molecule listed as C=C(C)[C@@H]1CC[C@]2(C(=O)O)CC[C@]3(C)[C@H](CC[C@@H]4[C@@]5(C)CC[C@H](OC(=O)CC(C)(C)C(=O)O)C(C)(C)[C@@H]5CC[C@]43C)[C@@H]12 [BEVIRIMAT] has a reported selectivity ratio of > 52

---

Test: Inhibition of membrane fusion between HIV1 NL4-3 envelope gene expressing COS cells and TZM cells
Format: functional, cell-based
EC50: recorded values
Reply numerically in µM, unit not repeated.

Please review the following examples before continuing.
CC(C)C[C@@H](CO)NC(=O)[C@]12CCC(C)(C)C=C1[C@H]1CC[C@@H]3[C@@]4(C)CC[C@H](OC(=O)CC(C)(C)C(=O)O)C(C)(C)[C@@H]4CC[C@@]3(C)[C@]1(C)CC2 : 5.85
CC(C)C[C@H](NC(=O)[C@]12CCC(C)(C)C=C1[C@H]1CC[C@@H]3[C@@]4(C)CC[C@H](OC(=O)CC(C)(C)C(=O)O)C(C)(C)[C@@H]4CC[C@@]3(C)[C@]1(C)CC2)C(=O)O : 3.58
CC1(C)C=C2[C@H]3CC[C@@H]4[C@@]5(C)CC[C@H](OC(=O)CC(C)(C)C(=O)O)C(C)(C)[C@@H]5CC[C@@]4(C)[C@]3(C)CC[C@@]2(C(=O)NCCCCCCCCCCC(=O)O)CC1 : 5.21

Now for another entry.
The compound listed as `C=C(C)[C@@H]1CC[C@]2(C(=O)NCCCCCCCC(=O)N[C@@H](CC(C)C)[C@H](O)CC(=O)O)CC[C@]3(C)[C@H](CC[C@@H]4[C@@]5(C)CC[C@H](O)C(C)(C)[C@@H]5CC[C@]43C)[C@@H]12` has a reported EC50 of 0.0086

---

Test system: H9
Assay: Antiviral activity against HIV1 3B in H9 lymphocytes
Type: functional, cell-based
Conditions: Homo sapiens
EC50: recorded values
Reply numerically in nM, unit not repeated.

Please review the following examples before continuing.
C=C(C)[C@@H]1CC[C@]2(C(=O)O)CC[C@]3(C)[C@H](CC[C@@H]4[C@@]5(C)CC[C@H](OC(=O)CC(C)(C)C(=O)O)C(C)(C)[C@@H]5CC[C@]43C)[C@@H]12 : 7
CC1(C)C=C2[C@H]3CC[C@@H]4[C@@]5(C)CC[C@H](OC(=O)CC(C)(C)C(=O)O)C(C)(C)[C@@H]5CC[C@@]4(C)[C@]3(C)CC[C@@]2(C(=O)NCCCCCCCCCCC(=O)O)CC1 : 7
CC(C)C[C@@H](CO)NC(=O)[C@]12CCC(C)(C)C=C1[C@H]1CC[C@@H]3[C@@]4(C)CC[C@H](OC(=O)CC(C)(C)C(=O)O)C(C)(C)[C@@H]4CC[C@@]3(C)[C@]1(C)CC2 : 17

Now for another entry.
The molecule listed as `CC1(C)CC[C@]2(C(=O)O)CC[C@]3(C)C(=CC[C@@H]4[C@@]5(C)CC[C@H](OC(=O)CC(C)(C)C(=O)O)C(C)(C)[C@@H]5CC[C@]43C)[C@@H]2C1` has a reported EC50 of 320
